# Test system: SK-MEL-28 melanoma
# protocol: NCI tumour cell line growth inhibition, 48 h
# GI50 annotations
measureName: GI50

# molecule, studySystem, obsValue
records = [
    ("NC(=O)c1c(OCc2c(F)cc(Br)cc2F)nsc1NC(=O)NCCCCN1CCCC1", "SK-MEL-28 melanoma", "1710 nM"),
    ("C#C[C@]1(O)CC[C@H]2[C@@H]3CC=C4c5nc(Nc6ccc(OC)cc6OC)sc5CC[C@]4(C)[C@H]3CC[C@@]21C", "SK-MEL-28 melanoma", "712 nM"),
    ("COc1cc(/C=C2\\C(=O)N(c3c(Cl)cccc3Cl)c3ccccc32)cc(OC)c1O", "SK-MEL-28 melanoma", "1250 nM"),
    ("Nc1ccc(-c2ccc(-c3nc4ccccc4[nH]3)cc2)cc1", "SK-MEL-28 melanoma", "2080 nM"),
    ("COCCOC(C)C(/C=N/NC(N)=S)=N/NC(N)=S (stereo unspecified)", "SK-MEL-28 melanoma", "> 100000 nM"),
    ("CN(C)CCCC1(c2ccc(F)cc2)OCc2cc(-c3ccc4cc[nH]c4c3)ccc21 (stereo unspecified)", "SK-MEL-28 melanoma", "1800 nM"),
]

###

# System: HL-60(TB) leukemia
# protocol: NCI tumour cell line growth inhibition, 48 h
In this section, each of the molecules is paired with its reported GI50.
measureName: GI50

# molecule, studySystem, obsValue
data = [
    ("Cc1cc(NC(=O)CCc2ccc(N3C(N)=NC(N)=NC3(C)C)cc2)ccc1S(=O)(=O)F", "HL-60(TB) leukemia", "3.45 µM"),
    ("C=CC(=O)Nc1cc2c(Nc3ccc(OCc4ccccn4)c(Cl)c3)ncnc2cc1OCCN1CCOCC1", "HL-60(TB) leukemia", "2.58 µM"),
    ("O=[N+]([O-])c1ccc2nc(N/N=C/c3ccc(O)cc3)sc2c1", "HL-60(TB) leukemia", "3.6 µM"),
    ("N#CC1=C(N)Oc2c(sc3c(F)cccc23)C1c1ccc([N+](=O)[O-])cc1 (stereo unspecified)", "HL-60(TB) leukemia", "0.212 µM"),
    ("O=C(NCCNCCO)c1ccc2oc3cc4ccccc4c(=O)n3c2c1", "HL-60(TB) leukemia", "11.7 µM"),
    ("Cc1ccnc2c1NC(=O)c1cccnc1N2C1CC1", "HL-60(TB) leukemia", "> 100 µM"),
    ("O=C(N/N=C/c1cc2ccccc2c2ccccc12)c1cc(O)c(O)c(O)c1", "HL-60(TB) leukemia", "3.54 µM"),
    ("O=[N+]([O-])c1ccc(N(CCO)CCO)c2c1no[n+]2[O-]", "HL-60(TB) leukemia", "0.759 µM"),
    ("CN(C)CCCC1(c2ccc(F)cc2)OCc2cc(-c3ccc4cc[nH]c4c3)ccc21 (stereo unspecified)", "HL-60(TB) leukemia", "1.74 µM"),
    ("COc1cc2cc(C(=O)O)[nH]c2cc1OCc1ccccc1", "HL-60(TB) leukemia", "> 100 µM"),
    ("NC(=O)c1c(OCc2c(F)cc(Br)cc2F)nsc1NC(=O)NCCCCN1CCCC1", "HL-60(TB) leukemia", "2.4 µM"),
]

###

# Test system: HCC-2998 colon
# protocol: NCI tumour cell line growth inhibition, 48 h
measureName: TGI

# compound, measureName, obsValue
records = [
    ("COC(=O)[C@]1(c2cc3ccccc3n2S(=O)(=O)c2ccccc2)CC2CCC1NC2 (stereo partly specified)", "TGI", "21.6 µM"),
    ("C=C(CO)CC(O)c1ccccc1 (stereo unspecified)", "TGI", "> 100 µM"),
    ("CC(O[Si](C)(C)C(C)(C)C)[C@H](NC(=O)OCC(Cl)(Cl)Cl)C(=O)O (stereo partly specified)", "TGI", "> 100 µM"),
    ("C=CCSc1n[nH]c(-c2cccs2)n1", "TGI", "> 100 µM"),
    ("Cc1sc(N=Nc2c(O)[nH]c3ccccc23)nc1-c1ccccc1", "TGI", "51.1 µM"),
    ("Cn1ncc2c(NCCc3ccccc3)nc(Cl)nc21", "TGI", "40.3 µM"),
    ("O=C(N/N=C/c1cc2ccccc2c2ccccc12)c1cc(O)c(O)c(O)c1", "TGI", "22.4 µM"),
    ("CCCCCN(CCCCC)C(=O)[C@@H](CCC(=O)OCc1ccccc1)NC(=O)c1cc2ccccc2[nH]1", "TGI", "> 100 µM"),
    ("COCCOC(C)C(/C=N/NC(N)=S)=N/NC(N)=S (stereo unspecified)", "TGI", "> 100 µM"),
    ("C(/COc1cccnc1)=N\\NC1=NCCN1", "TGI", "> 100 µM"),
    ("CC(C)(C)OC(=O)C1/C(=C/CO)CN1C(=O)OC(C)(C)C (stereo unspecified)", "TGI", "> 100 µM"),
]

###

# Test system: M14 melanoma
# protocol: NCI tumour cell line growth inhibition, 48 h; in the data active = GI50 below about 0.43 µM; inactive = the rest
Outcome codes: active, inactive

# molecule, classAssignment
records = [
    ("O=C(Nc1ccc(-n2cc(-c3ccncc3)c(-c3ccc(Cl)c(O)c3)n2)cc1)c1cc(Cl)cc(Cl)c1", "inactive"),
    ("COc1ccc2[nH]cc(/C=C3\\C(=O)Nc4ccccc43)c2c1", "inactive"),
    ("Cc1ccc(NC2=C(Cl)C(=O)c3nc(C)ccc3C2=O)cc1", "inactive"),
    ("O=C=Nc1ccc(Cc2ccc(N=C=O)cc2)cc1 (tested in a mixture with another compound)", "inactive"),
    ("Nc1ccc(-c2ccc(-c3nc4ccccc4[nH]3)cc2)cc1", "active"),
    ("CCN(C)S(=O)(=O)Nc1cccc(Nc2ncnc3cc(NC(=O)CCl)ccc23)c1Cl", "inactive"),
    ("O=C(NCCNCCO)c1ccc2oc3cc4ccccc4c(=O)n3c2c1", "inactive"),
    ("O=[N+]([O-])c1ccc(N(CCO)CCO)c2c1no[n+]2[O-]", "inactive"),
    ("C[C@]12CC[C@@H]3c4ccc(O)cc4CC[C@H]3[C@@H]1CC[C@@H]2NS(=O)(=O)c1cccc(Br)c1", "inactive"),
    ("COC(=O)c1c2c(c(C)[n+]([O-])c1C)C(=O)C(NCc1ccc(F)c(Cl)c1)=CC2=O", "inactive"),
    ("COc1cc2cc(C(=O)O)[nH]c2cc1OCc1ccccc1", "inactive"),
    ("C=CCSc1n[nH]c(-c2cccs2)n1", "inactive"),
    ("COc1ccc2cc(C(=O)/C=C/c3ccc(OC)c(OC)c3)ccc2c1", "inactive"),
    ("O=C1Nc2ccccc2SC1C1SC(=S)N(Cc2ccccc2)C1=O (centres undefined)", "inactive"),
]

###

# Test system: 786-0 renal
# protocol: NCI tumour cell line growth inhibition, 48 h
Where a SMILES comes first, the peptide text is derived from it. [ ]: non-standard residue; d: D form. 2Nal = N[CH](Cc1ccc2ccccc2c1)C(=O)O
measureName: GI50

# compound, studySystem, obsValue
records = [
    ("COC(=O)/C(=C/N1CCN(C(=O)c2ccco2)C1=S)C(C)=O", "786-0 renal", "11.2 µM"),
    ("O=[N+]([O-])c1ccc(N(CCO)CCO)c2c1no[n+]2[O-]", "786-0 renal", "1.8 µM"),
    ("O=C(NCCNCCO)c1ccc2oc3cc4ccccc4c(=O)n3c2c1", "786-0 renal", "14.6 µM"),
    ("NC(=O)c1c(OCc2c(F)cc(Br)cc2F)nsc1NC(=O)NCCCCN1CCCC1", "786-0 renal", "1.43 µM"),
    ("COc1cc(/C=C2\\C(=O)N(c3c(Cl)cccc3Cl)c3ccccc32)cc(OC)c1O", "786-0 renal", "1.49 µM"),
    ("C/C=C(/C)C(=O)OC1C=C(CO)C(=O)C(OC(=O)/C(C)=C\\C)C1C(C)C (centres undefined)", "786-0 renal", "1.08 µM"),
    ("CCOC(=O)c1cc(C(=O)c2cc(OC)cc(OC)c2)n2ncccc12", "786-0 renal", "11.4 µM"),
    ("O=C(N/N=C/c1cc2ccccc2c2ccccc12)c1cc(O)c(O)c(O)c1", "786-0 renal", "2.77 µM"),
    ("COc1ccc2[nH]cc(/C=C3\\C(=O)Nc4ccccc43)c2c1", "786-0 renal", "11.9 µM"),
    ("C#C[C@]1(O)CC[C@H]2[C@@H]3CC=C4c5nc(Nc6ccc(OC)cc6OC)sc5CC[C@]4(C)[C@H]3CC[C@@]21C", "786-0 renal", "0.504 µM"),
    ("O=C1C(Nc2ccccn2)=C(I)C(=O)c2ncccc21", "786-0 renal", "1.9 µM"),
    ("N#Cc1ccc(-n2cnc(NC(=O)[C@H]3CCN(C#N)C3)c2)cc1", "786-0 renal", "2.42 µM"),
    ("O=C=Nc1ccc(Cc2ccc(N=C=O)cc2)cc1 (tested in a mixture with another compound)", "786-0 renal", "> 25 µg/mL"),
    ("CC(NC(=O)C(N)Cc1ccccc1)C(=O)NC(Cc1ccc(O)cc1)C(=O)NC(Cc1c[nH]c2ccccc12)C(=O)NC(CCCCN)C(=O)NC(C(=O)NC(C)C(=O)NC(Cc1ccc2ccccc2c1)C(N)=O)C(C)C (centres undefined) (H-FAYWKVA[2Nal]-NH2; configuration not given here)", "786-0 renal", "24.8 µM"),
]

The reported measurements were obtained from PubChem BioAssay (NCI).
